# TGI listing for each entry below
# System: NCI-H226 lung
# method.notes: NCI tumour cell line growth inhibition, 48 h
Give just the number in µM; leave the unit off.

[[record]]
molecule = "COc1cc(OC)cc(-c2nc3sccn3c2/C=N/N=C(N)N)c1"
unit_descriptor = "µM"
reported_value = 14.8

[[record]]
molecule = "COc1ccc2c3c(c(C(=O)O)oc13)CCC2"
unit_descriptor = "µM"
reported_value = 83

[[record]]
molecule = "COc1cc(-c2nn(-c3cccc(NC(=O)NCCNS(=O)(=O)c4ccc(Cl)cc4)c3)cc2-c2ccncc2)ccc1Cl"
unit_descriptor = "µM"
reported_value = 14.3

[[record]]
molecule = "CCCCCCCCCCCC[N+](C)(C)Cc1ccccc1"
unit_descriptor = "µM"
reported_value = 18.6

[[record]]
molecule = "Nc1ncnc2c1c(-c1ccc(Oc3ccccc3)cc1)nn2C[C@H]1SSC[C@@H]1O"
unit_descriptor = "µM"
reported_value = 5.15

[[record]]
molecule = "COC1=CC(=O)C2C(C1=O)[C@@H]1c3ccccc3OC(C)(C)[C@H]21 (some centres not stated)"
unit_descriptor = "µM"
reported_value = 54.7


Give its TGI value. Item: `O=C1/C(=C/c2ccc(F)c(F)c2)CN(C(=O)C(Cl)Cl)C/C1=C\c1ccc(F)c(F)c1`
5.72

Data credit: PubChem BioAssay (NCI)
